Reported pIC50 values are given for each entry in this list.
target: Human Factor D (Homo sapiens (Human), UniProt P00746)
Sequence (P00746 26-253): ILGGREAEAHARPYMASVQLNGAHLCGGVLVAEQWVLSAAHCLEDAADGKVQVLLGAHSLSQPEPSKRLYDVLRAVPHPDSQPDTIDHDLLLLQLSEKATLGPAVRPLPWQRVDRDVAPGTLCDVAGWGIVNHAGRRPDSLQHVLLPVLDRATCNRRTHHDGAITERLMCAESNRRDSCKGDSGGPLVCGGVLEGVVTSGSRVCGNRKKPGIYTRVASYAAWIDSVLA
assay-details: Human Factor D Assay
Type: biochemical
assay-context: Factor D inhibition, assay of Example 10; read-out: IC5 (Stars)
pIC50: −log10 of the molar value.

Examples from the recorded data:
compound_structure=CC(=O)c1nn(CC(=O)N2[C@H](C(=O)Nc3nc(Br)ccc3C)C[C@@]3(CN4CC(C)(C)C4)C[C@@H]23)c2c(C)cc(-c3cnc(C)nc3)cc12 value_measured="> 6.00"
compound_structure=CC(=O)c1nn(CC(=O)N2[C@H](C(=O)Nc3nc(Br)ccc3C)C[C@@]3(Cn4ccc(C(C)(C)C)n4)C[C@@H]23)c2ccc(-c3cnc(C)nc3)cc12 value_measured="> 6.00"
compound_structure=CC(=O)c1nn(CC(=O)N2C[C@](C)(F)C[C@H]2C(=O)Nc2nc(Br)ccc2C)c2c(C)nc(-c3cnc(C)nc3)cc12 value_measured="> 6.00"
compound_structure=CC(=O)c1nn(CC(=O)N2C[C@@](F)(CF)C[C@H]2C(=O)Nc2nc(Br)c(F)cc2C)c2c(C)nc(-c3cnc(C)nc3)cc12 value_measured="> 6.00"
compound_structure=CC(=O)c1nn(CC(=O)N2[C@H](C(=O)Nc3nc(Br)ccc3CC#N)C[C@@]3(C)C[C@@H]23)c2c(C)cc(-c3cnc(C)nc3)cc12 value_measured="> 6.00"

Now consider a different compound.
input: Requested field: pIC50. Item: `CC(=O)c1nn(CC(=O)N2[C@H](C(=O)Nc3nc(Br)ccc3CN(C)C)C[C@@]3(C)C[C@@H]23)c2cc(Cl)c(-c3cnc(C)nc3)cc12`
output: > 6.00

---

target: Human Factor D (Homo sapiens (Human))
assay-details: Human Factor D Assay
Assay type: biochemical
assay-context: Table 6; Factor D 80 nM, substrate Z-L-Lys-SBz; read-out: IC50
pIC50: −log10 of the molar value.
reported-metric: pIC50

Examples from the recorded data:
compound_structure=CC(=O)c1nn(CC(=O)N2[C@H](C(=O)Nc3nc(Br)c(F)cc3C)C[C@@]3(C)C[C@@H]23)c2c(C)cc(-c3cnc(C)nc3)cc12 reported_metric=pIC50 value_measured="> 6.00"
compound_structure=CC(=O)c1nn(CC(=O)N2[C@H](C(=O)Nc3nc(Br)ccc3C)C[C@@]3(CNCCF)C[C@@H]23)c2c(C)cc(-c3cnc(C)nc3)cc12 reported_metric=pIC50 value_measured="> 6.00"
compound_structure=CC(=O)c1nn(CC(=O)N2C[C@H]3C[C@H]3[C@H]2C(=O)Nc2nc(Br)ccc2C)c2cnc(-c3cnc(C)nc3)cc12 reported_metric=pIC50 value_measured="> 6.00"
compound_structure=CC(=O)c1nn(CC(=O)N2[C@@H]3C[C@@H]3C[C@H]2C(=O)NC/C(F)=C(/C)c2ccccc2)c2c(C)cc(-c3cnc(C)nc3)cc12 reported_metric=pIC50 value_measured="> 6.00"
compound_structure=CC(=O)c1nn(CC(=O)N2[C@H](C(=O)Nc3nc(Br)ccc3C)C[C@@]3(C)C[C@@H]23)c2c(CF)cc(-c3cnc(C)nc3)cc12 reported_metric=pIC50 value_measured="> 6.00"
compound_structure=CC(=O)c1nn(CC(=O)N2[C@H](C(=O)Nc3nc(Br)ccc3C)C[C@@]3(CN4CC5(CCC5)C4)C[C@@H]23)c2c(C)cc(-c3cnc(C)nc3)cc12 reported_metric=pIC50 value_measured="> 6.00"
compound_structure=COc1ncc(-c2cc3c(C(C)=O)nn(CC(=O)N4[C@H](C(=O)Nc5nc(Br)c(F)cc5C)C[C@@]5(C)C[C@@H]45)c3cn2)cn1 reported_metric=pIC50 value_measured="> 6.00"
compound_structure=CC(=O)c1nn(CC(=O)N2[C@H](C(=O)Nc3nc(Br)ccc3C)C[C@@]3(COCCN(C)C)C[C@@H]23)c2ccc(-c3cnc(C)nc3)cc12 reported_metric=pIC50 value_measured="> 6.00"

input: Requested field: pIC50. Item: `CC(=O)c1nn(CC(=O)N2[C@H](C(=O)Nc3nc(Br)ccc3C)C[C@@]3(CN4C[C@H]5CCC[C@H]5C4)C[C@@H]23)c2c(C)cc(-c3cnc(C)nc3)cc12`
output: > 6.00

input: Requested field: pIC50. Item: `COCc1ccc(Br)c(NC(=O)[C@@H]2C[C@@]3(C)C[C@H]3N2C(=O)Cn2nc(C(C)=O)c3cc(-c4cnc(C)nc4)cc(COC)c32)n1`
output: < 5.00

input: Requested field: pIC50. Item: `Cc1ccc(Br)nc1NC(=O)[C@@H]1C[C@@]2(C)C[C@H]2N1C(=O)Cn1nc(-c2ccco2)cc1C(N)=O`
output: 5.00 to 6.00

input: Requested field: pIC50. Item: `CC(=O)c1nn(CC(=O)N2[C@H](C(=O)Nc3nc(Br)ccc3C)C[C@@]3(CNS(C)(=O)=O)C[C@@H]23)c2c(C)cc(-c3cnc(C)nc3)cc12`
output: > 6.00
